condition.set: in n-pentyl acetate, 278.15 K
test.readout: solubility (mole fraction)
Output spec: single numeric token, no unit.

Please give the documented solubility (mole fraction) of CCCCN(CCCC)CC(O)c1cc(Cl)cc2c1-c1ccc(Cl)cc1/C2=C/c1ccc(Cl)cc1 (stereo unspecified) 0.00475

----------
condition.set: in n-propyl acetate, 288.15 K
test.readout: solubility (mole fraction)
Output spec: single numeric token, no unit.

Please give the documented solubility (mole fraction) of CCCCN(CCCC)CC(O)c1cc(Cl)cc2c1-c1ccc(Cl)cc1/C2=C/c1ccc(Cl)cc1 (stereo unspecified) 0.00486

----------
condition.set: in n-propyl acetate, 278.15 K
test.readout: solubility (mole fraction)
Output spec: single numeric token, no unit.

Please give the documented solubility (mole fraction) of CCCCN(CCCC)CC(O)c1cc(Cl)cc2c1-c1ccc(Cl)cc1/C2=C/c1ccc(Cl)cc1 (stereo unspecified) 0.00281
